- Tested on: HIV transcripts (TAR, LLTR, Pol, PolyA, TatRev)
- experiment: Cell-associated HIV transcripts (RT-ddPCR) 6 days after anti-CD3/CD28 activation of PBMCs from ART-suppressed PWH
- Assay type: cell-based
- stated-conditions: participant 1379; DMSO+CD3/28 = 1; Fig 4B, C and D
PolyA/LLTR overview
Reply with the value as a number alone.

Some entries whose results are on file:
compound	PolyA/LLTR
CO[C@H]([C@@H](C)[C@H]1O[C@]1(C)C[C@H](C)/C=C/C=C(\C)[C@H]1O[C@@H](CC(=O)O)CC[C@@H]1C)[C@@H](C)O [herboxidiene]	0.4801
C=CCNC1=C2C[C@@H](C)C[C@H](OC)[C@H](O)[C@@H](C)/C=C(\C)[C@H](OC(N)=O)[C@@H](OC)/C=C\C=C(/C)C(=O)NC(=CC1=O)C2=O [tanespimycin]	0
CN1CC[C@H](c2c(O)cc(O)c3c(=O)cc(-c4ccccc4Cl)oc23)[C@H](O)C1 [alvocidib]	0.9327

Note: attention shifts to another entry.
[in] Notebook: pull reported PolyA/LLTR for HIV transcripts (TAR, LLTR, Pol, PolyA, TatRev), entry COc1ccc(-c2cc(=O)c3c(O)cc(O)c(-c4cc(-c5cc(=O)c6c(O)cc(O)cc6o5)ccc4OC)c3o2)cc1 [isoginkgetin]
[out] 0.4663

====

TatRev/PolyA overview
- Tested on: HIV transcripts (TAR, LLTR, Pol, PolyA, TatRev)
- experiment: Cell-associated HIV transcripts (RT-ddPCR) 6 days after anti-CD3/CD28 activation of PBMCs from ART-suppressed PWH
- Type: cell-based
- stated-conditions: participant 2161; DMSO+CD3/28 = 1; Fig 4B, C and D
Reply with the value as a number alone.

CO[C@H]([C@@H](C)[C@H]1O[C@]1(C)C[C@H](C)/C=C/C=C(\C)[C@H]1O[C@@H](CC(=O)O)CC[C@@H]1C)[C@@H](C)O 0.6583
N#CC[C@H](C1CCCC1)n1cc(-c2ncnc3[nH]ccc23)cn1 0
O=c1c(O)c(-c2ccc(O)c(O)c2)oc2cc(O)cc(O)c12 0.8634
CCc1cnn2c(NCc3ccc[n+]([O-])c3)cc(N3CCCC[C@H]3CCO)nc12 1.061

Note: attention shifts to another entry.
[in] Notebook: pull reported TatRev/PolyA for HIV transcripts (TAR, LLTR, Pol, PolyA, TatRev), entry CC(=O)N[C@@H]1CCC[C@H](C(=O)Nc2cc(-c3cnn4c3CC(C)(C)C4)c(Cl)cn2)C1
[out] 0

====

- Test system: PBMCs
- experiment: Cell viability by trypan blue staining after 24 hours
- Format: cell-based, human
- stated-conditions: study participant 152
- Experimental: Figure 1 Screening of candidate LPAs by measuring the change in multiply spliced HIV transcripts after activation. Each drug was tested in PBMCs from 2 ART-suppressed study participants (denoted in the legend by varying symbol shapes). […] (A) After 24 hours, the viability was measured by trypan blue staining and then normalized to the levels of the activated DMSO (% of activated DMSO). […] For quantification of cell-associated HIV transcripts, PBMCs were harvested either after 24 hours or after 6 days. […]
Viability (Fig 1A) overview

molecule	Viability (Fig 1A)
Oc1ccc(/C=C/c2cc(O)cc(O)c2)cc1 [resveratrol]	91.76 % of activated DMSO

[in] Returns the measured Viability (Fig 1A) for the input molecule. Input: CC(=O)S[C@@H]1CC2=CC(=O)CC[C@]2(C)[C@H]2CC[C@@]3(C)[C@@H](CC[C@@]34CCC(=O)O4)[C@H]12 [spironolactone]
[out] 102.65 % of activated DMSO

[in] Returns the measured Viability (Fig 1A) for the input molecule. Input: CC(=O)Oc1ccccc1C(=O)O [aspirin]
[out] 95.5 % of activated DMSO

====

Viability (Fig 1A) overview
- Test system: PBMCs
- experiment: Cell viability by trypan blue staining after 24 hours
- Assay type: cell-based, human
- stated-conditions: study participant 150a

Some entries whose results are on file:
molecule	Viability (Fig 1A)
Nc1ccc(O)c(C(=O)O)c1	102.78 % of activated DMSO
Nc1ncnc2c1ncn2[C@@H]1O[C@H](CO)C[C@H]1O [cordycepin]	101.9 % of activated DMSO
COc1cc(F)ccc1-c1ncnc(Nc2cccc(C[S@](C)(=N)=O)c2)n1	108.3 % of activated DMSO
CCc1cnn2c(NCc3ccc[n+]([O-])c3)cc(N3CCCC[C@H]3CCO)nc12	96.36 % of activated DMSO
O=c1c(O)c(-c2ccc(O)c(O)c2)oc2cc(O)cc(O)c12	100.02 % of activated DMSO

[in] Returns the measured Viability (Fig 1A) for the input molecule. Input: CC(=O)N[C@@H]1CCC[C@H](C(=O)Nc2cc(-c3cnn4c3CC(C)(C)C4)c(Cl)cn2)C1
[out] 106.07 % of activated DMSO

[in] Returns the measured Viability (Fig 1A) for the input molecule. Input: CC(=O)Oc1ccccc1C(=O)O
[out] 99.56 % of activated DMSO

[in] Returns the measured Viability (Fig 1A) for the input molecule. Input: CNc1ccc([N+](=O)[O-])c(Nc2ccc3[nH]ncc3c2)n1
[out] 102.97 % of activated DMSO

[in] Returns the measured Viability (Fig 1A) for the input molecule. Input: CO[C@H]([C@@H](C)[C@H]1O[C@]1(C)C[C@H](C)/C=C/C=C(\C)[C@H]1O[C@@H](CC(=O)O)CC[C@@H]1C)[C@@H](C)O
[out] 99.57 % of activated DMSO

====

- Tested on: HIV transcripts (TAR, LLTR, Pol, PolyA, TatRev)
- experiment: Cell-associated HIV transcripts (RT-ddPCR) 6 days after anti-CD3/CD28 activation of PBMCs from ART-suppressed PWH
- Format: cell-based
- stated-conditions: participant 2747; DMSO+CD3/28 = 1; Fig 4B, C and D
metric: LLTR/TAR

Some entries whose results are on file:
CO[C@H]([C@@H](C)[C@H]1O[C@]1(C)C[C@H](C)/C=C/C=C(\C)[C@H]1O[C@@H](CC(=O)O)CC[C@@H]1C)[C@@H](C)O 0
COc1ccc(-c2cc(=O)c3c(O)cc(O)c(-c4cc(-c5cc(=O)c6c(O)cc(O)cc6o5)ccc4OC)c3o2)cc1 0

[in] Returns the measured LLTR/TAR for the input molecule. Input: CN1CC[C@H](c2c(O)cc(O)c3c(=O)cc(-c4ccccc4Cl)oc23)[C@H](O)C1
[out] 0

[in] Returns the measured LLTR/TAR for the input molecule. Input: N#CC[C@H](C1CCCC1)n1cc(-c2ncnc3[nH]ccc23)cn1
[out] 0.4032

====

- Tested on: HIV transcripts (TAR, LLTR, Pol, PolyA, TatRev)
- experiment: Cell-associated HIV transcripts (RT-ddPCR) 6 days after anti-CD3/CD28 activation of PBMCs from ART-suppressed PWH
- Assay type: cell-based
- stated-conditions: participant 2256; DMSO+CD3/28 = 1; Fig 4B, C and D
PolyA/LLTR vs 0.7: at or above is 1, below is -1.

CO[C@H]([C@@H](C)[C@H]1O[C@]1(C)C[C@H](C)/C=C/C=C(\C)[C@H]1O[C@@H](CC(=O)O)CC[C@@H]1C)[C@@H](C)O 1

[in] In plain terms: is recorded PolyA/LLTR at least 0.7 for COc1ccc(-c2cc(=O)c3c(O)cc(O)c(-c4cc(-c5cc(=O)c6c(O)cc(O)cc6o5)ccc4OC)c3o2)cc1 ?
[out] -1

[in] In plain terms: is recorded PolyA/LLTR at least 0.7 for C=CCNC1=C2C[C@@H](C)C[C@H](OC)[C@H](O)[C@@H](C)/C=C(\C)[C@H](OC(N)=O)[C@@H](OC)/C=C\C=C(/C)C(=O)NC(=CC1=O)C2=O ?
[out] -1

[in] In plain terms: is recorded PolyA/LLTR at least 0.7 for CNc1ccc([N+](=O)[O-])c(Nc2ccc3[nH]ncc3c2)n1 ?
[out] 1

[in] In plain terms: is recorded PolyA/LLTR at least 0.7 for O=c1c(O)c(-c2ccc(O)c(O)c2)oc2cc(O)cc(O)c12 ?
[out] 1

====

LLTR/TAR overview
- Tested on: HIV transcripts (TAR, LLTR, Pol, PolyA, TatRev)
- experiment: Cell-associated HIV transcripts (RT-ddPCR) 6 days after anti-CD3/CD28 activation of PBMCs from ART-suppressed PWH
- Format: cell-based
- stated-conditions: participant 1379; DMSO+CD3/28 = 1; Fig 4B, C and D

COc1ccc(-c2cc(=O)c3c(O)cc(O)c(-c4cc(-c5cc(=O)c6c(O)cc(O)cc6o5)ccc4OC)c3o2)cc1 1.373
CO[C@H]([C@@H](C)[C@H]1O[C@]1(C)C[C@H](C)/C=C/C=C(\C)[C@H]1O[C@@H](CC(=O)O)CC[C@@H]1C)[C@@H](C)O 1.462
C=CCNC1=C2C[C@@H](C)C[C@H](OC)[C@H](O)[C@@H](C)/C=C(\C)[C@H](OC(N)=O)[C@@H](OC)/C=C\C=C(/C)C(=O)NC(=CC1=O)C2=O 1.931

Note: attention shifts to another entry.
[in] Returns the measured LLTR/TAR for the input compound. Input: CN1CC[C@H](c2c(O)cc(O)c3c(=O)cc(-c4ccccc4Cl)oc23)[C@H](O)C1
[out] 0.8323
